System: SW-620 colon
Test: NCI-60 one-dose screen, 48 h (100 = growth as untreated, 0 = no growth, -100 = all killed)
Conditions: 10 µM unless noted
Method: Growth inhibition of the SW-620 human tumor cell line is measured as a screen for anti-cancer activity. Cells are grown in 96 well plates and exposed to the test compound for 48 hours. Compounds are tested at a single concentration, which is 10^-5 M for most compounds. The reported endpoint is percent growth (GI% or GIPRCNT), where numbers from 0 - 100% represent growth inhibition, and numbers from -100% - 0 represent cell death. For example, a value of 40 represents 60% growth inhibition. […]
This is part of a sample that, as a whole, favours compounds with a hit. Of some 83,000 tested, about 20% had one in any assay. Activity calls are given as the source filed them. Rule for the calls: active = growth percent below 10; inactive = the rest.
// reported growth for each item listed

COMPOUND	growth
O=C(N/N=C\c1cccc([N+](=O)[O-])c1)N/N=C/c1cccc([N+](=O)[O-])c1	103% (inactive)
CN1CCN(CCCOc2cccc3nc(Nc4ccc(F)c(F)c4)ccc23)CC1	-90.3% (active)
N#C/C(=C\c1ccc([N+](=O)[O-])cc1)n1nnc2cc(F)c(F)cc21	-18.5% (active)
N#Cc1c(-c2ccccc2)nc(SCc2nnc(-c3ccc(Cl)cc3)o2)[nH]c1=O	100% (inactive)
Nc1ccc(-c2csc(-n3[nH]c(=O)ccc3=O)n2)cc1	104% (inactive)
COc1ccc(/C=C(/C(=O)n2cnnn2)c2cc(OC)c(OC)c(OC)c2)cc1	21.2% (inactive)
O=C(O)c1cn(C2CC2)c2cc(N3CCN(C(=O)Nc4nc(-c5ccc(Br)cc5)cs4)CC3)c(F)cc2c1=O	21.6% (inactive)
CC(C)(C)c1cc(Cl)c(O)c(CNCCO)c1	86.4% (inactive)
COc1cc(C(=O)c2c(-c3ccccc3)oc3c(OC)cccc23)cc(OC)c1OC	20.1% (inactive)
CCN1CCN(CC(=O)Nc2nc3ccc(NCc4ccc(F)cc4)cc3s2)CC1	92.3% (inactive)
CCN1CCN(C(=O)[C@]23CC[C@@H](C)[C@H](C)[C@@H]2C2=CC[C@@H]4[C@@]5(C)C/C(=C/c6cccnc6)C(=O)C(C)(C)[C@@H]5CC[C@@]4(C)[C@]2(C)CC3)CC1	13.3% (inactive)
COc1ccc(C2=CN3CC=CC3CC2=O)cc1 (stereo not given)	105% (inactive)
Cc1ccc2nc(/C(C#N)=C(/CCCO)NC(Cc3ccccc3)C(=O)OCc3ccccc3)[nH]c(=O)c2c1 (stereo not given)	110% (inactive)
O=C(CN1CCCCCC1)Nc1nc2ccc(NCc3ccc(Cl)cc3)cc2s1	97.9% (inactive)
C=C1C(=O)O[C@H]2[C@H]1CC/C(Cn1cc(CCC)nn1)=C\CC[C@@]1(C)O[C@@H]21	-0.143% (active)
Cc1nc2cc(O)c(O)cc2cc1Oc1ccc(NC(=O)Nc2ccc(Cl)c(Cl)c2)cc1	49.3% (inactive)
O=c1nc(-c2ccccc2)c2cc(-c3ccc(C(F)(F)F)nc3)ccc2[nH]1	101% (inactive)
O=C1/C(=C\c2ccccn2)c2ccccc2N1c1c(Cl)cccc1Cl	-56.9% (active)
CN1CCN(Cc2ccc(NC(=O)c3cncc(C#Cc4cnc5ccc(Cl)nn45)c3)cc2C(F)(F)F)CC1	-2.63% (active)
COC(=O)c1nc(-c2ccccc2)oc1S(=O)(=O)NCC(c1ccc(Cl)cc1)N1CCOCC1 (stereo not given)	18.7% (inactive)
